# Tested on: HCC-2998 colon
# Test Method Notes: NCI-60 one-dose screen, 48 h (100 = growth as untreated, 0 = no growth, -100 = all killed)
# Experimental Context: 10 µM unless noted
This is part of a sample that, as a whole, favours compounds with a hit. Of some 83,000 tested, about 20% had one in any assay.
Could you mark each record 1 if its growth falls strictly under 90%, and -1 if it equals or exceeds it?

Task: Quick check: does `O=C1CN=C(c2ccc(Cl)cc2)c2sccc2N1` have growth under 90%?
Output: -1

Task: Quick check: does `CCn1cnc2c(Nc3cccc(Cl)c3)nc(N[C@@H]3CCCC[C@@H]3N)nc21` have growth under 90%?
Output: 1

Task: Quick check: does `CC(=O)OC[C@]1(C)C=C2C(=O)[C@](C)(O)C3(CC3)C(C)=C2[C@H]1OC(=O)N(C)CCN(C)C(=O)OC(C)(C)C` have growth under 90%?
Output: 1

Task: Quick check: does `O=C1C(Cl)=C(N2CCOCC2)C(=O)c2ccccc21` have growth under 90%?
Output: -1

Task: Quick check: does `COc1cc2c(c(OC)c1OC)-c1ccc([O-])c(=O)cc1[C@@H](NC(C)=O)CC2.COc1cc2c(c(OC)c1OC)-c1ccc([O-])c(=O)cc1[C@@H](NC(C)=O)CC2.[Cu+2]` have growth under 90%?
Output: 1

Task: Quick check: does `N#C[S-].[Au+].c1ccc(CN2[CH-]N(Cc3ccccc3)C(c3ccccc3)=C2c2ccccc2)cc1` have growth under 90%?
Output: 1

Task: Quick check: does `CCCCCCCC[N+](C)(CCCCCCCC)CCCCCCCC` have growth under 90%?
Output: 1

Task: Quick check: does `Cc1ccc(S(=O)(=O)F)cc1C(=O)O` have growth under 90%?
Output: -1

Task: Quick check: does CN[C@@]1(c2ccccc2Cl)CCCC[C@@H]1NCC1CCCO1 (stereo partly specified) have growth under 90%?
Output: -1

Task: Quick check: does `CCC(C)(C)[C@H](NC(=O)[C@H]1CCCCN1C)C(=O)N(C)[C@H](C[C@@H](OC(C)=O)c1nc(C(=O)N[C@@H](Cc2ccccc2)C[C@H](C)C(=O)O)cs1)C(C)C` have growth under 90%?
Output: 1

Task: Quick check: does `Cc1cc(C)cc(Nc2nc3c(s2)CC[C@@]2(C)C3=CC[C@@H]3[C@@H]2CC[C@]2(C)C(=O)CC[C@@H]32)c1` have growth under 90%?
Output: -1

Task: Quick check: does `CCCCC1(CCC)C(=O)NC(=S)NC1=O` have growth under 90%?
Output: -1

Task: Quick check: does `O=NNc1ccccn1` have growth under 90%?
Output: 1

Task: Quick check: does `COC(=O)N[C@H]1CCc2c(Br)c(OC)c(OC)c(OC)c2-c2ccc(SC)c(=O)cc21` have growth under 90%?
Output: 1

Task: Quick check: does `O=C(Nc1ccc(Br)cc1)c1cc(Br)cc(Br)c1O` have growth under 90%?
Output: 1

Task: Quick check: does `C#C[C@]1(OC(=O)CCCCCC)CC[C@H]2[C@@H]3CCC4=CC(=O)CC[C@@H]4[C@H]3CC[C@@]21C` have growth under 90%?
Output: 1

Where do the numbers come from? From PubChem BioAssay (NCI).
